- experimentNotes: Semi-thermodynamic solubility
- Type: physicochemical
- testSettings: PBS, aqueous buffer, thermodynamic from solid, Room Temp; Overnight; LC-MSMS; read-out: Mean Solubility
For each entry below, report its solubility value.

Study these solved cases before continuing.
Oc1cc(Cl)cc2c1NC(c1ccc(Cl)cc1)C1CC=CC21 (stereo not shown)	< 1 µM
COc1ncc(C(C)NC2CC(C)(C)NC(C)(C)C2)cc1Cl (stereo not shown)	> 100 µM

Respectfully, I request solubility for each entry included below.
1. COC(=O)C1=C(C)NC(C)=C(C(=O)OCCN(C)Cc2ccccc2)C1c1cccc([N+](=O)[O-])c1 (stereo not shown) [nicardipine, reference compound]
2. O=C(O)c1c(Cl)cc(O)c2c1C1C=CCC1C(c1ccc(Cl)cc1)N2 (stereo not shown)

Output:
1. 29.8 µM
2. > 100 µM

###

- experimentNotes: In vivo bioavailability / PK after 1 mg/kg IV or 10 mg/kg PO
- Parameters: species or system Male ICR mice
- testSettings: male, ICR, mouse, plasma, oral, 10 mg/kg, 10 mg/kg PO, time 24 h, mouse#1-3; read-out: in vivo PK raw, level per mouse
readoutLabel: concentration at 24 h (nM)
Numbers only, in nM.

Input: Which measured concentration at 24 h value corresponds to Cc1[nH]nc(-c2ccc(O)c(C)c2O)c1-c1nc2ccccc2s1 [Compound E12] ?
Output: 0

###

For each entry below, report its half-life value.
- experimentNotes: In vivo bioavailability / PK after 1 mg/kg IV or 10 mg/kg PO
- Set-up: species or system Male ICR mice
- testSettings: male, ICR, mouse, plasma; 1 mg/kg, IV
Give bare numbers, in h.

Study these solved cases before continuing.
O=[N+]([O-])c1c(Cl)cc(O)c2c1C1C=CCC1C(c1ccc(Cl)cc1)N2 (stereo not drawn)	1.14
Cc1[nH]nc(-c2ccc(O)c(C)c2O)c1-c1nc2ccccc2s1	0.15

Now examine the next entry.
Input: Which measured half-life value corresponds to CC(C)C[C@@H](CO)NCc1cc(O)c2cc(F)ccc2n1 ?
Output: 1.55

###

- experimentNotes: In vivo bioavailability / PK after 1 mg/kg IV or 10 mg/kg PO
- Parameters: species or system Male ICR mice
- testSettings: male, ICR, mouse, plasma, iv, 1 mg/kg, mg/kg IV, time 0.167 h, mouse#1-3; read-out: in vivo PK raw, level per mouse
- Description: In vivo bioavailability studies were performed by Pharmacology Discovery Services Taiwan, Ltd., (New Taipei City, Taiwan). Male ICR mice weighing 20—30 g were provided by BioLasco Taiwan (under Charles River Laboratories Licensee). Animals were acclimated for 3 days prior to use and were confirmed with good health. All animals were maintained in a hygienic environment with controlled temperature (20—24 °C), humidity (30%—70%) and 12 h light/dark cycles. […]
readoutLabel: concentration at 0.167 h
Kindly write the number and append the unit.

Input: Which measured concentration at 0.167 h value corresponds to Cc1[nH]nc(-c2ccc(O)c(C)c2O)c1-c1nc2ccccc2s1 ?
Output: 1360 nM

###

- experimentNotes: In vivo bioavailability / PK after 1 mg/kg IV or 10 mg/kg PO
- Parameters: species or system Male ICR mice
- testSettings: male, ICR, mouse, plasma, iv, 1 mg/kg, mg/kg IV, time 24 h, mouse#1-3; read-out: in vivo PK raw, level per mouse
readoutLabel: concentration at 24 h
Kindly write the number and append the unit.

Input: Which measured concentration at 24 h value corresponds to Cc1[nH]nc(-c2ccc(O)c(C)c2O)c1-c1nc2ccccc2s1 ?
Output: 0 nM

###

- experimentNotes: Semi-thermodynamic solubility
- Type: physicochemical
- testSettings: PBS, aqueous buffer, thermodynamic from solid, Room Temp; Overnight; LC-MSMS; read-out: Solubility Replicate 3
readoutLabel: solubility

Respectfully, I request solubility for each entry included below.
1. O=C(O)c1c(Cl)cc(O)c2c1C1C=CCC1C(c1ccc(Cl)cc1)N2 (stereo not drawn) [Compound 13]
2. O=[N+]([O-])c1c(Cl)cc(O)c2c1C1C=CCC1C(c1ccc(Cl)cc1)N2 (stereo not drawn) [Compound 7]

Output:
> 100 µM
9.97 µM

Respectfully, I request solubility for each entry included below.
1. Cc1[nH]nc(-c2ccc(O)c(C)c2O)c1-c1nc2ccccc2s1 [Compound E12]
2. CC(C)C[C@@H](CO)NCc1cc(O)c2cc(F)ccc2n1 [Compound 3.14]
3. O=[N+]([O-])c1c(Cl)cc(O)c2c1C1C=CCC1C(c1ccc(Cl)cc1Cl)N2 (stereo not drawn) [Compound 8]
4. N#Cc1c(Cl)cc(O)c2c1C1C=CCC1C(c1ccc(Cl)cc1)N2 (stereo not drawn) [Compound 14]

Output:
1. > 100 µM
2. > 100 µM
3. > 100 µM
4. 27.2 µM

###

For each entry below, report its efflux ratio at 120 min, 10 μM value.
- experimentNotes: CaCo-2 permeability (bi-directional)
- testSettings: human, Caco-2

Study these solved cases before continuing.
CC(C)C[C@@H](CO)NCc1cc(O)c2cc(F)ccc2n1	8.64
COc1ncc(C(C)NC2CC(C)(C)NC(C)(C)C2)cc1Cl (stereo not shown)	8.01
Cc1[nH]nc(-c2ccc(O)c(C)c2O)c1-c1nc2ccccc2s1	5.13
O=[N+]([O-])c1c(Cl)cc(O)c2c1C1C=CCC1C(c1ccc(Cl)cc1)N2 (stereo not shown)	2.84
Oc1cc(Cl)cc2c1NC(c1ccccc1)C1CC=CC21 (stereo not shown)	36.9
O=C(O)c1c(Cl)cc(O)c2c1C1C=CCC1C(c1ccc(Cl)cc1)N2 (stereo not shown)	1.5

Now examine the next entry.
Input: Which measured efflux ratio at 120 min, 10 μM value corresponds to CC1(C)Cc2cccc(OCC(=O)Nc3nc4ccccc4s3)c2O1 ?
Output: 4

###

- experimentNotes: In vivo bioavailability / PK after 1 mg/kg IV or 10 mg/kg PO
- Set-up: species or system Male ICR mice
- testSettings: male, ICR, mouse, plasma; 1 mg/kg, IV
readoutLabel: AUC(0-inf) (ng·h/mL)
Answers are plain numbers, in ng·h/mL.

Cc1[nH]nc(-c2ccc(O)c(C)c2O)c1-c1nc2ccccc2s1	86

Respectfully, I request AUC(0-inf) for each entry included below.
1. CC(C)C[C@@H](CO)NCc1cc(O)c2cc(F)ccc2n1
2. O=[N+]([O-])c1c(Cl)cc(O)c2c1C1C=CCC1C(c1ccc(Cl)cc1)N2 (stereo not drawn)

Output:
1. 413
2. 398

###

- experimentNotes: Semi-thermodynamic solubility
- Format: physicochemical
- testSettings: PBS, aqueous buffer, thermodynamic from solid, Room Temp; Overnight; LC-MSMS; read-out: Solubility Replicate 1
- Protocol: In vitro ADME-T assays were performed by Cyprotex (Cyprotex Discovery, Cheshire, UK). […] The solution was agitated at ambient temperature overnight. The solutions were then centrifuged for 30 min at 3000 rpm at RT. The supernatant was removed and centrifuged for a further 30 min under the same conditions. […] The solubility of the shortlisted hits was calculated from a linear or quadratic fit of the standard curve.
For each entry below, report its solubility value.
Answers are plain numbers, in µM.

CC1(C)Cc2cccc(OCC(=O)Nc3nc4ccccc4s3)c2O1 [Compound E25]	1.26

Now examine the next entry.
Input: Which measured solubility value corresponds to Oc1cc(Cl)cc2c1NC(c1ccccc1)C1CC=CC21 (centres unmarked) [Compound 11] ?
Output: 1.95

###

For each entry below, report its Papp B→A at 120 min, 10 μM value.
- experimentNotes: CaCo-2 permeability (bi-directional)
- testSettings: human, Caco-2, pH 7.4, Papp B2A Replicate 2, HBSS/HBSS; pH 7.4/7.4
One number for each entry, in ×10⁻⁶ cm/s.

Oc1cc(Cl)cc2c1NC(c1ccccc1)C1CC=CC21 (stereo not shown)	10.6

Respectfully, I request Papp B→A at 120 min, 10 μM for each entry included below.
1. O=C(O)c1c(Cl)cc(O)c2c1C1C=CCC1C(c1ccc(Cl)cc1)N2 (stereo not shown)
2. COc1ncc(C(C)NC2CC(C)(C)NC(C)(C)C2)cc1Cl (stereo not shown)
3. O=[N+]([O-])c1c(Cl)cc(O)c2c1C1C=CCC1C(c1ccc(Cl)cc1Cl)N2 (stereo not shown)

Output:
1: 3.2; 2: 36.8; 3: 6.96

###

- experimentNotes: Microsomal metabolic stability
- Assay type: in vitro ADME
- testSettings: human, pooled liver microsomes, pH 7.4; read-out: Metabolic stability - Intrinsic clearance (CI)
readoutLabel: microsomal CLint at 1 µM (µL/min/mg)
Numbers only, in µL/min/mg.

Study these solved cases before continuing.
N#Cc1c(Cl)cc(O)c2c1C1C=CCC1C(c1ccc(Cl)cc1)N2 (stereo not shown)	845
Oc1cc(Cl)cc2c1NC(c1ccc(Cl)cc1)C1CC=CC21 (stereo not shown)	555
CC(C)C[C@@H](CO)NCc1cc(O)c2cc(F)ccc2n1	47.6
Oc1cc(Cl)cc2c1NC(c1ccccc1)C1CC=CC21 (stereo not shown)	490
Cc1[nH]nc(-c2ccc(O)c(C)c2O)c1-c1nc2ccccc2s1	251
O=[N+]([O-])c1c(Cl)cc(O)c2c1C1C=CCC1C(c1ccc(Cl)cc1)N2 (stereo not shown)	383
COc1ncc(C(C)NC2CC(C)(C)NC(C)(C)C2)cc1Cl (stereo not shown)	355
CC1(C)Cc2cccc(OCC(=O)Nc3nc4ccccc4s3)c2O1	2510

Respectfully, I request microsomal CLint at 1 µM for each entry included below.
1. O=[N+]([O-])c1c(Cl)cc(O)c2c1C1C=CCC1C(c1ccc(Cl)cc1Cl)N2 (stereo not shown)
2. O=C(O)c1c(Cl)cc(O)c2c1C1C=CCC1C(c1ccc(Cl)cc1)N2 (stereo not shown)

Output:
1. 414
2. 16.7
